Origin of the recorded values: PubChem BioAssay (NCI)

# Test system: SF-539 CNS
# assay procedure: NCI tumour cell line growth inhibition, 48 h
metric: TGI

Cc1ccc(NC(=O)C(=O)Cc2nc3ccccc3o2)c(C)c1 ... > 100 µM
COc1cccc(C2C(C(=O)Nc3cc(=O)n(C)c(=O)n3C)=C(C)NC(C)=C2C(=O)Nc2cc(=O)n(C)c(=O)n2C)c1O ... > 100 µM
C=C(C)[C@H]1CC/C(C)=C/CCC(C)C(=O)CC/C(CO)=C\[C@@H]1O (stereo not given in full) ... > 100 µM
NC(CSC(c1ccccc1)(c1ccccc1)c1ccc2ccccc2c1)C(=O)O (stereo not given) ... 3.07 µM

--- query ---
// returns TGI for CCCCCCCCCC(=O)CC(=O)c1c(O)cccc1O with SF-539 CNS; value = > 100 µM

###

# Test system: BT-549 breast
# assay procedure: NCI tumour cell line growth inhibition, 48 h
As shown below, each of these compounds has a reported TGI value.

C[C@@H]1OC(=O)C[C@H]2CC(=O)N(CCc3cn(S(=O)(=O)C(F)(F)F)c4ccccc34)C[C@@H]21 ... > 100 µM

Record summary for C=C1C(C)C2C(Cc3ccccc3)NC(=O)C23C(OC(C)=O)/C=C/C(C)(O)CC(C)C/C=C/C3C1O (centres undefined) : reported TGI = > 47.3 µM

Record summary for N#Cc1c(-c2ccc(Cl)cc2)c(C#N)c(=O)n(NS(=O)(=O)c2ccccc2)c1-c1ccccc1 : reported TGI = > 25 µM

Record summary for N#Cc1c(C#N)c(SSc2c(C#N)c(C#N)c(N)n2-c2ccccc2)n(-c2ccccc2)c1N : reported TGI = 30.7 µM

###

# Tested on: SK-MEL-5 melanoma
# assay procedure: NCI tumour cell line growth inhibition, 48 h
metric: TGI (µM)
The reply should contain only the number, in µM.

// returns TGI for COC(=O)C1=C(O)C(C(=O)OC)[C@]2(O)[C@H](C(=O)OC)[C@H]1C[C@@H](c1ccc(OC)cc1)[C@H]2C(=O)OC (stereo not given in full) with SK-MEL-5 melanoma; value = 55.8

// returns TGI for CC/C=C\CCC/C=C1/C(=O)C=C[C@@H]1C/C=C\CCCC(=O)O with SK-MEL-5 melanoma; value = 3.31

###

# Tested on: SK-MEL-2 melanoma
# assay procedure: NCI tumour cell line growth inhibition, 48 h
As shown below, each of these compounds has a reported TGI value.

Here are 5 compounds together with their reported answers.
O=C1OC(CN2CCN(c3ccccc3)CC2)CN1C(=S)Nc1ccccc1 (stereo unspecified) ... > 100 µM
COc1cc(C2C(C(=O)Nc3ccccc3)=C(C)NC(C)=C2C(=O)Nc2ccccc2)ccc1O ... 76.8 µM
COc1cccc(C2C(C(=O)Nc3cc(=O)n(C)c(=O)n3C)=C(C)NC(C)=C2C(=O)Nc2cc(=O)n(C)c(=O)n2C)c1O ... > 100 µM
Clc1nc2c(-c3cccs3)ncnc2n1Cc1ccccc1 ... > 100 µM
COC(=O)C1=C(C)NC(C)=C([N+](=O)[O-])C1c1cccc(NO)c1 (stereo unspecified) ... > 43.8 µM

--- query ---
// returns TGI for CSCCC(NC(c1ccccc1)c1ccccc1)[P+](=O)O (stereo unspecified) with SK-MEL-2 melanoma; value = > 100 µM

###

# System: M14 melanoma
# assay procedure: NCI tumour cell line growth inhibition, 48 h
metric: TGI (µM)
The reply should contain only the number, in µM.

CCN(CC)CCCNC(=O)Cc1ccccc1Nc1c(Cl)cccc1Cl ... 7.88

--- query ---
Record summary for CC[C@H](C)[C@H](NC(=O)C12C3C4C1C1C2C3C41NC(C)=O)C(=O)N(C)[C@H](C[C@@H](OC(C)=O)c1nc(C(=O)N[C@@H](Cc2ccccc2)C[C@H](C)C(=O)OC)cs1)C(C)C (some centres undefined) : reported TGI = 2.25

###

# Test system: HS 578T breast
# assay procedure: NCI tumour cell line growth inhibition, 48 h
As shown below, each of these molecules has a reported TGI value.

O=C(O)c1ccccc1/C=N\NC1=NCCN1 ... > 100 µM
CC(=O)OC1CCC2(C)C(=CC(C3C=C4CC(OC(C)=O)CCC4(C)C4=C3C3CC5OC6(CCC(C)CO6)C(C)C5C3(C)CC4)C3=C2CCC2(C)C3CC3OC4(CCC(C)CO4)C(C)C32)C1 (stereo not given) ... 17 µM
COc1ccc(C)cc1NC(=S)N/N=C/c1ccc(SC)cc1 ... > 100 µM

Record summary for CC(C)[Si](OC1=CCCCCC12C(=O)N(C)c1ccccc12)(C(C)C)C(C)C (stereo not given) : reported TGI = 61.6 µM

Record summary for Cc1ccc(/C=N/Nc2ncccn2)s1 : reported TGI = > 100 µM

###

# System: HCC-2998 colon
# assay procedure: NCI tumour cell line growth inhibition, 48 h
As shown below, each of these molecules has a reported TGI value.

Here are 2 molecules together with their reported answers.
COc1cc2c(cc1OC)CCN=C2 ... > 100 µM
CN(Cc1cnc2nc(N)nc(N)c2n1)c1ccc(C(=O)NC(CCC(=O)O)C(=O)O)cc1 (stereo unspecified) ... > 100 µM

--- query ---
Record summary for COC(=O)C1=C(O)C(C(=O)OC)[C@]2(O)[C@H](C(=O)OC)[C@H]1C[C@@H](c1ccc(OC)cc1)[C@H]2C(=O)OC (stereo partly specified) : reported TGI = 37.8 µM

###

# System: A498 renal
# assay procedure: NCI tumour cell line growth inhibition, 48 h
# cutoff 30 µM applies to TGI; >= gives Fulfilled, < gives Not fulfilled

Known results for compounds:
COc1cc2c(cc1OC)C(Cl)C(c1cc(OC)c(OC)c(OC)c1)=C2Cl (stereo unspecified) ... Fulfilled
O=[N+]([O-])c1ccccc1C1N2CCCCC2[C@@H]2c3[nH]c4ccccc4c3CCN12 (stereo partly specified) ... Not fulfilled
CC[C@H](C)[C@H](NC(=O)C12C3C4C1C1C2C3C41NC(C)=O)C(=O)N(C)[C@H](C[C@@H](OC(C)=O)c1nc(C(=O)N[C@@H](Cc2ccccc2)C[C@H](C)C(=O)OC)cs1)C(C)C (stereo partly specified) ... Not fulfilled

Could you verify whether the entry CN1OC(=O)N(C)C1c1ccccc1 (stereo unspecified) shows TGI of no less than 30 µM?
Fulfilled

Could you verify whether the entry CC(C)[Si]1(C(C)C)OCC2OC(n3ccc(=O)[nH]c3=O)C(O)(CO)C2O[Si](C(C)C)(C(C)C)O1 (stereo unspecified) shows TGI of no less than 30 µM?
Fulfilled

Could you verify whether the entry Nc1c(C(=O)c2ccccc2)[nH]c(NCc2ccccc2)c1C(=S)Nc1ccccc1 shows TGI of no less than 30 µM?
Fulfilled

Could you verify whether the entry CCNCC(O)c1ccc(N)c([N+](=O)[O-])c1 (stereo unspecified) shows TGI of no less than 30 µM?
Fulfilled

Could you verify whether the entry CSc1c(C#N)c2n(c3ccccc3[n+]2C)c2ncccc12 shows TGI of no less than 30 µM?
Fulfilled

Could you verify whether the entry COC(=O)C1(Cc2cccc(Cl)c2)CCCCCCN1C(=O)c1ccccc1 (stereo unspecified) shows TGI of no less than 30 µM?
Not fulfilled

Could you verify whether the entry Nc1ccn(C2OC(COP(=O)(O)Oc3ccccc3)C(O)C2O)c(=O)n1 (stereo unspecified) shows TGI of no less than 30 µM?
Fulfilled

Could you verify whether the entry Cc1ccc(Nc2ccc(Nc3ccc(C)cc3)c3c2C(=O)c2c(O)ccc(O)c2C3=O)cc1 shows TGI of no less than 30 µM?
Fulfilled

Could you verify whether the entry Oc1ccc2ccccc2c1N=Nc1ccccc1 shows TGI of no less than 30 µM?
Fulfilled

Could you verify whether the entry COc1cc(C2C(C(=O)Nc3ccccc3)=C(C)NC(C)=C2C(=O)Nc2ccccc2)ccc1O shows TGI of no less than 30 µM?
Fulfilled

Could you verify whether the entry C=C1C(=O)OC2/C=C(\C)C(O)/C=C\C(C)(O)CC(OC(=O)/C(C)=C/C)C12 (stereo unspecified) shows TGI of no less than 30 µM?
Fulfilled

Could you verify whether the entry N#Cc1nc(-c2ccccc2)oc1S(=O)(=O)N1CCOCC1 shows TGI of no less than 30 µM?
Fulfilled

Could you verify whether the entry O=C1c2ccccc2C(=O)N1c1ccc(OCCN2CCCCC2)cc1 shows TGI of no less than 30 µM?
Fulfilled

Could you verify whether the entry CN1C[C@@H]2CCCN2P1Oc1cccc2cccnc12 (stereo partly specified) shows TGI of no less than 30 µM?
Fulfilled

###

# Test system: A498 renal
# assay procedure: NCI tumour cell line growth inhibition, 48 h
Where a SMILES comes first, the peptide text is derived from it. The star is where a group is joined. Cbz = O=C(OCc1ccccc1)*
metric: TGI

COCN1C(=O)[C@@H]2CCCN2C(=O)c2cc([N+](=O)[O-])ccc21 ... > 100 µM
CN(Cc1cnc2nc(N)nc(N)c2n1)c1ccc(C(=O)NC(CCC(=O)O)C(=O)O)cc1 (stereo not given) ... > 100 µM
CCCCCCCSCC(O)COC(c1ccccc1)(c1ccccc1)c1ccccc1 (stereo not given) ... > 100 µM
CCOC(=O)C(C)NC(=O)C(C)NC(=O)C(C)NC(=O)C(C)NC(=O)C(C)NC(=O)C(C)NC(=O)C(C)NC(=O)OCc1ccccc1 (stereo not given) (Cbz-AAAAAAA-OEt; configuration not given here) ... > 100 µM

Record summary for CC(=O)OC[C@@]12C[C@H]3C(=O)C(C)(C)C[C@H]3[C@]1(C)[C@@H](OC(C)=O)[C@]1(O)[C@H]([C@@H](OC(=O)c3ccccc3)[C@@H](C)[C@H]1OC(C)=O)[C@H]2OC(C)=O : reported TGI = > 20 µM
